Attribution: patent US20240270821A1

Biological target: hGLP-1R (Homo sapiens, UniProt P43220)
Sequence (P43220 24-463): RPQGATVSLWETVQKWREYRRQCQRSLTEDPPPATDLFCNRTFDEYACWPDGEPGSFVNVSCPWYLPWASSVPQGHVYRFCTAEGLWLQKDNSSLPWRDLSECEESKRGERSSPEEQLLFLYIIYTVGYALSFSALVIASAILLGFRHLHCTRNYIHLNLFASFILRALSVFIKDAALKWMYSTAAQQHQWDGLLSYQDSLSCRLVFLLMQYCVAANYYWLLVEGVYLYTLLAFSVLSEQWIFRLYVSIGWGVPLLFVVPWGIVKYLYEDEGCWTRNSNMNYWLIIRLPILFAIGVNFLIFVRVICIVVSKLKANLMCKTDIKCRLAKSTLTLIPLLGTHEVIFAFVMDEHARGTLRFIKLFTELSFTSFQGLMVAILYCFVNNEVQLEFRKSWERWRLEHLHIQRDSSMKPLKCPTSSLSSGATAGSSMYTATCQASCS
Test: cell-based or functional assay
Reported cAMP Rel EC50, nM (in the presence of 1% HSA) values for a set of binders
Answer in nM, number only, no unit symbol.

Worked examples follow.
| binder | unitsOfMeasure | valueReported |
| --- | --- | --- |
| YXQGTFTSDFSXXLDKKAQXAFIEYLLAGGPSSGEPPPSGS (synthetic construct; SITE 2: note = 2-Aminoisobutyric Acid; SITE 12: note = L-ornithine; SITE 13: note = alpha-methyl-leucine; SITE 17: note = Lysine is chemically modified through conjugation of the epsilon-amino group of the Lysine side chain with (2-[2-(2-Amino-ethoxy)-ethoxy]-acetyl)-(gamma-Glu)) [Example 94] | nM | 480 |
| YXQGTFTSDFSXXLDKKAQXAFIEYLLEXGPSSGAPPPSEG (synthetic construct; SITE 2: note = 2-Aminoisobutyric Acid; SITE 12: note = L-ornithine; SITE 13: note = alpha-methyl-leucine; SITE 17: note = Lysine is chemically modified through conjugation of the epsilon-amino group of the Lysine side chain with (2-[2-(2-Amino-ethoxy)-ethoxy]-acetyl)2-(gamma-Glu)) [Example 71] | nM | 1010 |

Now for a further binder.
## Task Need cAMP Rel EC50, nM (in the presence of 1% HSA), item YXQGTFTSDFSXXLDKKAQXAFIEYLLEGGPSSGAPPPSGE (synthetic construct; SITE 2: note = 2-Aminoisobutyric Acid; SITE 12: note = L-ornithine; SITE 13: note = alpha-methyl-leucine; SITE 17: note = Lysine is chemically modified through conjugation of the epsilon-amino group of the Lysine side chain with (2-[2-(2-Amino-ethoxy)-ethoxy]-acetyl)2-(gamma-Glu)) [Example 107]
## Result 1110
